B1: TPR t1 (parent)
chain: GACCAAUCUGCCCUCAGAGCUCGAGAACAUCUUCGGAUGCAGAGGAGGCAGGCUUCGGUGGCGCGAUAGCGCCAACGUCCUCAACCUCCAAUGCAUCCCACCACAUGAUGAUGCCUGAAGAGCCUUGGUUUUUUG

Variants of: B1
assay summary: polymerase ribozyme fitness, log enrichment relative to wild type (log ratio); higher = more active; in vitro selection for triplet polymerase activity
measured parameter: polymerase ribozyme fitness (log ratio)
One number for each entry.

Look over these answered cases.
[[record]]
monomer_sequence = "GACCAAUCUGCCCUCAGAGCUCGAGAACAUCUUCGGAUGCAGAGGAGGCAGGCUUCGGUGGCGCGAUAACGCCAACGUCCUCAACCUCCAAUGCAUCCCACCACAUGAUGAUGCCUGAAGAGCCUUGGUUUUUUU [G69A G135U]"
measured_value = -3.93

[[record]]
monomer_sequence = "GACCAAUCUGCCCUCAGAGCUCGAGAACAUCUUCGGAUGCAGAGGAGGCAGGCUUCGGUGGCGCGAUAGCGCCAACGUGCUCAACCUCCAAUGCAUCCCACCACAUGAUGAUGCGUGAAGAGCCUUGGUUUUUUG [C79G C115G]"
measured_value = -4.07

[[record]]
monomer_sequence = "GUCCAAUCUGCCCUCAGAGCUCGAGAACAUCUUCGGAUGCAGAGUAGGCAGGCUUCGGUGGCGCGAUAGCGCCAACGUCCUCAACCUCCAAUGCAUCCCACCACAUGAUGAUGCCUGAAGAGCCUUGGUUUUUUG [A2U G45U]"
measured_value = -3.96


variant GACCAAUCUGCGCCCAGAGCUCGAGAACAUCUUCGGAUGCAGAGAAGGCAGGCUUCGGUGGCGCGAUGGCGCCAACGUCCUCAACCUCCAAUGCAUCCCACCACAAGAUGAUGCCUGAAGAGCCUUGGUUUUUUG [C12G U14C G45A A68G U106A] , polymerase ribozyme fitness (log ratio) observed: -4.06
